Test system: ACHN
testName: Cytotoxicity against human ACHN cells after 72 hrs by CCK8 assay
Format: functional, cell-based
valueKind: IC50 (µM)
Number only, in µM; omit the unit.

Known IC50 results, listed for orientation:
C=C(C=O)[C@]1(O)C[C@@]2(C)C(=CC1=O)C=C[C@H](OC(=O)/C=C/C(C)=C/[C@@H](C)CC)[C@@H]2C; 4.3
CNC(=O)c1cc(Oc2ccc(NC(=O)Nc3ccc(Cl)c(C(F)(F)F)c3)cc2)ccn1; 3.5
CC[C@@H]1OC(=O)c2cc(O)c(O)cc21; 34

# context switch: different compound, same IC50
Endpoint output: IC50 of "C=C(/C=N/O)[C@]1(OC)C[C@@]2(C)C(=CC1=O)C=C[C@H](OC(=O)/C=C/C(C)=C/[C@@H](C)CC)[C@@H]2C" . Value?
3.1

---

System: 786-0
testName: Cytotoxicity against human 786-O cells after 72 hrs by CCK8 assay
Format: functional, cell-based
settings: 786-0, 72 h
pIC50: −log10 of the molar value.
valueKind: pIC50

Known pIC50 results, listed for orientation:
C=C(CO)[C@]1(O)C[C@@]2(C)C(=CC1=O)C=CC[C@@H]2C; < 4.30
CC[C@@H]1OC(=O)c2c1ccc(O)c2O; < 4.30

Endpoint output: pIC50 of "CC[C@@H]1OC(=O)c2cc(O)ccc21" . Value?
< 4.30
